Tested on: SF-295
Test: NCI tumour cell line growth inhibition, 48 h
The source made the active and inactive calls. No stated cut-off is given here; in the data, active = GI50 up to about 1.1 µM and inactive = higher.
Use one of these outcomes when replying: active, inactive

Test call, this molecule: `N#Cc1nn(C(N)=O)c(N)c1C#N`
inactive

# repeat for `CN1CCN(CCCCN2c3ccccc3Sc3cc(N=[N+]=[N-])ccc32)CC1`
inactive

# repeat for `C=CC1(c2ccc(OC)cc2)OCCCO1`
inactive

====

System: SK-MEL-5
Assay: NCI tumour cell line growth inhibition, 48 h
Activity calls are given as the source filed them. No stated cut-off is given here; in the data, active = GI50 up to about 1.1 µM and inactive = higher.
QUANTITY MEASURED: GI50

Here are 2 molecules together with their reported answers.
CC[C@H]1CN2CCc3cc(OC)c(OC)cc3[C@@H]2C[C@@H]1C[C@H]1NCCc2c1[nH]c1ccc(O)cc21 [TUBULOSINE]: 0.0135 µM (active)
C=CCOC(=O)CCCCCCCCCCCCCCCOC(=O)C1=C(CCC[C@@H](C)O[Si](C)(C)C(C)(C)C)NC(=O)N2[C@H](CC3(CC/C=C\[C@H](CC)O[Si](C(C)C)(C(C)C)C(C)C)OCCO3)CC[C@H]12: > 100 µM (inactive)

Below: the item to evaluate.
What GI50 value was documented for this molecule, COc1ccc(N2C(=O)C(N3C(=O)C=CC3=O)C2C=O)cc1 (stereo not drawn) ?
> 100 µM (inactive)

====

Test system: HOP-18
Experiment: NCI tumour cell line growth inhibition, 48 h
Calls of active or inactive are those of the source. No stated cut-off is given here; in the data, active = GI50 up to about 1.1 µM and inactive = higher.
Use one of these outcomes when replying: true (1) = active, false (0) = inactive

Solved cases below.
N=S(c1ccccc1)c1ccccc1[N+](=O)[O-] (centres undefined): false (0)
O=C(O)CCC(NC(=O)c1ccccc1)C(=O)O (centres undefined): false (0)
c1ccc2c(c1)SC(=C1Sc3ccccc3S1)S2: false (0)
C=C1CCC2C(C)(CO)C(O)CCC2(C)C1CC(O)/C(=C/CO)C(=O)O (centres undefined): false (0)
N#CNCC(COCc1ccccc1)c1ccccc1 (centres undefined): false (0)
COC1(OC)C2(Cl)C(Cl)=C(Cl)C1(Cl)C1c3ccc(C(C)=O)c4cccc(c34)C12 (centres undefined): false (0)
C/C=C/CC(S(=O)(=O)c1ccccc1)S(=O)(=O)c1ccccc1: false (0)
COc1cccc(-n2c3nc(=O)n(C)c(=O)c-3nc3ccccc32)c1: false (0)

Test call, this compound: CC/C(C)=C1\CCC(CN2CCOCC2)C1=O (centres undefined)
false (0)

# repeat for `CCOC(=O)C(=O)Nc1ccc(C)cc1C`
false (0)

# repeat for COC(=O)C(CC1=C(O)Nc2ccccc2N1)/C(=N/NC(N)=O)C(=O)Nc1ccccc1C (centres undefined)
false (0)

# repeat for `N#CCN1C(=O)c2cccc3cc([N+](=O)[O-])cc(c23)C1=O`
false (0)

# repeat for `COC(=O)N/N=C(\C)c1sc(-c2nc(C)c(/C(C)=N/NC(=O)OC)s2)nc1C`
false (0)

# repeat for `CCS(=O)(=O)Nc1ccc(Nc2c3ccccc3nc3ccccc23)c(OC)c1`
true (1)

# repeat for `O=C1c2ccccc2C(=O)N1CCn1ccc(NC(c2ccccc2)(c2ccccc2)c2ccccc2)nc1=O`
false (0)

# repeat for `Cc1nc2c(=O)n(C)c(=O)nc-2n(-c2ccc(Cl)cc2)c1C`
false (0)

# repeat for `Cc1cc(/N=N/c2ccc(/N=N/c3c(O)c(S(=O)(=O)O)cc4cc(S(=O)(=O)O)ccc34)cc2C)ccc1/N=N/c1ccc2cc(S(=O)(=O)O)cc(S(=O)(=O)O)c2c1`
false (0)

# repeat for CCN(CC)CC(O)CNc1ccc(NCC(O)CCl)c2c1C(=O)c1ccccc1C2=O (centres undefined)
false (0)

# repeat for `O=C(c1ccccc1)c1nc2ccc(Cl)cc2cc1C(Br)Br`
true (1)
